test: Henry solubility constant Hcp at 298.15 K (mol/(m3 Pa)); settings: reference: Snider and Dawson (1985)
QUANTITY_NAME: Henry solubility constant Hcp
A bare number is all that is needed in reply.

C=CC=O	0.072

I'd like to know its Henry solubility constant Hcp. The compound in question is CCCO 1.3

I'd like to know its Henry solubility constant Hcp. The compound in question is CCC(C)O (centres undefined) 1.1

I'd like to know its Henry solubility constant Hcp. The compound in question is CC#N 0.48

###

experiment: Henry solubility constant Hcp at 298.15 K (mol/(m3 Pa)); details: reference: Christie and Crisp (1967)
QUANTITY_NAME: Henry solubility constant Hcp
A bare number is all that is needed in reply.

Example cases with answers are listed next.
CCCCNCCCC [dibutylamine]	0.11
CCCNCCC [dipropylamine]	0.19

Below: the item to evaluate.
I'd like to know its Henry solubility constant Hcp. The compound in question is CN(C)C [trimethylamine] 0.095
